# credit: patent US20240117038A1

TARGET OR TEST SYSTEM: T1, human CX3CR1 T280M (human, UniProt P49238 1-355)
T1 construct: Transiently transfected in HEK293T cells (pcDNA3.1); also called huCX3CR1 variant T280M (Rs3732378)
T1 sequence: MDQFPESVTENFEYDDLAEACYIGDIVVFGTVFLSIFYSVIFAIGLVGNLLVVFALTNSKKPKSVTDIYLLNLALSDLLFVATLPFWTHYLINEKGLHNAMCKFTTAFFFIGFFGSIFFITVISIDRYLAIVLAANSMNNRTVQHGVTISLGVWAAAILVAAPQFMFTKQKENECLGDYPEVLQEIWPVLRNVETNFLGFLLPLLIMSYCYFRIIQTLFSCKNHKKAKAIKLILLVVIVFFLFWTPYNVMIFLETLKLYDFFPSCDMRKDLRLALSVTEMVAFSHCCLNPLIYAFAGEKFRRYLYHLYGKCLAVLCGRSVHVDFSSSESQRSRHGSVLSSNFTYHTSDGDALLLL
RUN DESCRIPTION: flow cytometry on transiently transfected HEK293T cells, human CX3CR1 T280M
QUANTITY: pEC50
Convention used: pEC50 is expressed as -log10 of the molar concentration.

Query :: Query (binder): A041600041 (VHH, Trivalent ISVD construct (two anti-CX3CR1 ISVDs, one anti-albumin ISVD), C-terminal alanine included in the entry; also called 54A12_SO (E1D)-9GS-66B02_SO-9GS-ALB23002-A) DVQLVESGGGSVQPGGSLRLSCAASGSIFSSTAMAWYRQAPGKQRDLVAVISTVGITKYADSVKGRFTISRDNAKNTVYLQMNSLRPEDTALYYCTSDARRGWDTRYWGQGTLVTVSSGGGGSGGGSEVQLVESGGGSVQPGGSLRLSCAASGSIFSSTAMAWYRQAPGKRRDLVAAINTVGVTKYADSVKGRFTISRDNAKNTVYLQMNSLRPEDTALYYCTSDPRRGWDTRYWGQGTLVTVSSGGGGSGGGSEVQLVESGGGVVQPGGSLRLSCAASGFTFRSFGMSWVRQAPGKGPEWVSSISGSGSDTLYADSVKGRFTISRDNSKNTLYLQMNSLRPEDTALYYCTIGGSLSRSSQGTLVTVSSA ; field requested: pEC50
Result :: 9.66
